Molecular target: CGRP1 receptor (CRLR/RAMP1 complex) of human neuroblastoma SK-N-MC cells (human, UniProt Q16602 23-461; O60894 27-148)
Sequence (Q16602 23-461, chain 1 of 2): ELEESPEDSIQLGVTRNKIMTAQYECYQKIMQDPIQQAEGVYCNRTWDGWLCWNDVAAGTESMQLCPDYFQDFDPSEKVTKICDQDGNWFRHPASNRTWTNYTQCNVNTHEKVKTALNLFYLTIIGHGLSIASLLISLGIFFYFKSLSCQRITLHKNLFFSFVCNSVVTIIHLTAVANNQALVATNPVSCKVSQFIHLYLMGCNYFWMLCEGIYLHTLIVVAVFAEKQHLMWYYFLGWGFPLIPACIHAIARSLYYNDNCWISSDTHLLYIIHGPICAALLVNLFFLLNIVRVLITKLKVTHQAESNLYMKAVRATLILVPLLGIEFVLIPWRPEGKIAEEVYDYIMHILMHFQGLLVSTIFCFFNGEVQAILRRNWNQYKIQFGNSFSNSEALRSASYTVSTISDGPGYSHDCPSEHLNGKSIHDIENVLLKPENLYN
Sequence (O60894 27-148, chain 2 of 2): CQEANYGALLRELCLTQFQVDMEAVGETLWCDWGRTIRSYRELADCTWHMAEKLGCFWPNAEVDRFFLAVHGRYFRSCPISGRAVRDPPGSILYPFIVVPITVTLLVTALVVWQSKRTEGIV
Assay: cell-based or functional assay
Square brackets hold non-standard residues; d marks the D form.
Reported property: IC50 (nM)
Answers are plain numbers, in nM.

// worked examples, IC50 included
{"columns": ["Binder", "Value units", "Recorded result"],
 "data": [
  ["WVTHRLAGLLSXSGGVVRKNFVPTDVGPFAF (Ac-WVTHRLAGLLS(Cit)SGGVVRKNFVPTDVGPFAF-NH2; 20 k Da PEG, Amine linkage) [SEQ ID NO 30]", "nM", 0.96],
  ["Ac-WVTHRLAGLLSQSGGVVRKNFVPTDVGPFAF-NH2 [SEQ ID NO 37]", "nM", 0.56],
  ["Ac-WVTHRLAGLLS[dR]SGGVVRCNFVPTDVGPFAF-NH2 (not fully specified (residue 19); printed as Ac-WVTHRLAGLLSrSGGVVRCNFVPTDVGPFAF-NH2) [SEQ ID NO 42]", "nM", 19.4]
]}

Give the reported value of IC50 for this record: WVTHXLAGLLSXSGGVVRKNFVPTDVGPFAF (Ac-WVTH(Cit)LAGLLS(Cit)SGGVVRKNFVPTDVGPFAF-NH2) [SEQ ID NO 31]
1.8
